- test-system: F protein mutant RSV-DS-Cav1-A with a DS-Cav1 structure before fusion (respiratory syncytial virus subtype A, …, UniProt P03420 26-513)
recorded-metric: pKd
The value called pKd is obtained by taking minus log10 of the concentration in mol/L.

Exercise: # pKd lookup, item anti-RSV monoclonal antibody Palivizumab (Hu1129) (antibody, V domains shown) VH: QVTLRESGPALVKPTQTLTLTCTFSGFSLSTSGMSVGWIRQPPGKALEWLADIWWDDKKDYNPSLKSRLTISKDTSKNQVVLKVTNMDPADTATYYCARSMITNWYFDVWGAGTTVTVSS VL: DIQMTQSPSTLSASVGDRVTITCKCQLSVGYMHWYQQKPGKAPKLWIYDTSKLASGVPSRFSGSGSGTEFTLTISSLQPDDFATYYCFQGSGYPFTFGGGTKLEIK
Solution: 8.59
